# Study System: Peroxisome proliferator-activated receptor alpha (Homo sapiens)
# Protocol: Transactivation of GAL4-tagged human PPARalpha LBD expressed in human HepG2 cells at 100 nM to 100 uM incubated for 20 to 22 hrs by luciferase reporter gene assay relative to clofibric acid
# Assay type: cell-based
Label TRUE when Emax is at or above 40%; otherwise label FALSE.

* CC(C)(Oc1ccc(CCOc2ccc(/N=N/c3ccc(Cl)cc3)cc2)cc1)C(=O)O | TRUE
* CC(C)(Oc1ccc(OCCc2ccc(/N=N/c3ccc(C#N)cc3)cc2)cc1)C(=O)O | TRUE
* COc1ccc(/N=N/c2ccc(OCCc3ccc(OC(C)(C)C(=O)O)cc3)cc2)cc1 | FALSE

Please tell me: is the molecule CC(C)(Oc1ccc(CCOc2ccc(/N=N/c3ccc([N+](=O)[O-])cc3)cc2)cc1)C(=O)O at or over 40% in terms of Emax?
FALSE

Please tell me: is the molecule CC(C)(Oc1ccc(OCCc2ccc(/N=N/c3ccc(C(F)(F)F)cc3)cc2)cc1)C(=O)O at or over 40% in terms of Emax?
FALSE

Please tell me: is the molecule CC(C)(Oc1ccc(OCCc2ccc(/N=N/c3ccccc3)cc2)cc1)C(=O)O at or over 40% in terms of Emax?
TRUE

meta.source: ChEMBL document CHEMBL4433217
